system: E. coli NCTC 10418; experiment: MIC against human bacteria in vitro; type: cell-based; conditions: Escherichia coli, NCTC10418; E. coli NCTC 10418; agar with 5% chocolated horse blood, 18 hours, 37° C.; read-out: MIC
MEASURED_ATTRIBUTE: MIC

Record lookup: for E. coli NCTC 10418, what MIC belongs to C/C(=C\c1cc(-c2ccccc2)on1)C[C@@H]1OC[C@H](C[C@@H]2O[C@H]2[C@@H](C)[C@H](C)O)[C@@H](O)[C@H]1O ? > 128 µg/mL

Write down the reported MIC of C/C(=C\c1ncc(Cc2ccccc2)o1)C[C@@H]1OC[C@H](C[C@@H]2O[C@H]2[C@@H](C)[C@H](C)O)[C@@H](O)[C@H]1O , test system: E. coli NCTC 10418. > 64 µg/mL

Please state recorded MIC (tested on E. coli NCTC 10418) of C/C(=C\c1cc(-c2ccccc2)no1)C[C@@H]1OC[C@H](C[C@@H]2O[C@H]2[C@@H](C)[C@H](C)O)[C@@H](O)[C@H]1O > 128 µg/mL

Test system E. coli NCTC 10418; read-out MIC; what value for C/C(=C\c1ncc(-c2ccc(C(=O)O)cc2)o1)C[C@@H]1OC[C@H](C[C@@H]2O[C@H]2[C@@H](C)[C@H](C)O)[C@@H](O)[C@H]1O ? > 64 µg/mL

Record C/C(=C\c1ncc(-c2ccc([N+](=O)[O-])cc2)o1)C[C@@H]1OC[C@H](C[C@@H]2O[C@H]2[C@@H](C)[C@H](C)O)[C@@H](O)[C@H]1O : what is its MIC with E. coli NCTC 10418? > 100 µg/mL

// fetch E. coli NCTC 10418 MIC for C/C(=C\c1ncc(CCCCCCCC(=O)O)o1)C[C@@H]1OC[C@H](C[C@@H]2O[C@H]2[C@@H](C)[C@H](C)O)[C@@H](O)[C@H]1O > 16 µg/mL

Form field: MIC recorded for C/C(=C\c1ncc(-c2ccc(C#N)cc2)o1)C[C@@H]1OC[C@H](C[C@@H]2O[C@H]2[C@@H](C)[C@H](C)O)[C@@H](O)[C@H]1O with E. coli NCTC 10418 (enter value) > 128 µg/mL

Provide the documented MIC with E. coli NCTC 10418 as the system for C/C(=C\c1ncc(-c2ccccc2[N+](=O)[O-])o1)C[C@@H]1OC[C@H](C[C@@H]2O[C@H]2[C@@H](C)[C@H](C)O)[C@@H](O)[C@H]1O > 128 µg/mL

Kindly state the measured MIC obtained for C/C(=C\c1ncc(-c2ccc(C=O)cc2)o1)C[C@@H]1OC[C@H](C[C@@H]2O[C@H]2[C@@H](C)[C@H](C)O)[C@@H](O)[C@H]1O with E. coli NCTC 10418. > 128 µg/mL

What reported MIC corresponds to C/C(=C\c1ncc(-c2ccc([S+](C)[O-])cc2)o1)C[C@@H]1OC[C@H](C[C@@H]2O[C@H]2[C@@H](C)[C@H](C)O)[C@@H](O)[C@H]1O (some centres unmarked) on E. coli NCTC 10418? > 128 µg/mL

What MIC appears in the records for this molecule with E. coli NCTC 10418? C/C(=C\c1ncc(-c2ccc(S(C)(=O)=O)cc2)o1)C[C@@H]1OC[C@H](C[C@@H]2O[C@H]2[C@@H](C)[C@H](C)O)[C@@H](O)[C@H]1O > 128 µg/mL

---

tested on: M. suipneumoniae TAM 6N; experiment: MIC against mycoplasma in vitro; type: cell-based; conditions: Mesomycoplasma hyopneumoniae, TAM6N, 144 h; M. suipneumoniae TAM 6N; 6 days, 37° C.; read-out: MIC
MEASURED_ATTRIBUTE: log10(MIC) (log10 of the value in µg/mL)
Heads up: the numbers are on a log10 scale; they represent MIC in µg/mL.

Recorded log10(MIC) of C/C(=C\c1ncc(-c2cccc([N+](=O)[O-])c2)o1)C[C@@H]1OC[C@H](C[C@@H]2O[C@H]2[C@@H](C)[C@H](C)O)[C@@H](O)[C@H]1O , please. -1.00

Which log10(MIC) value belongs to C/C(=C\c1ncc(-c2ccc(C(=O)O)cc2)o1)C[C@@H]1OC[C@H](C[C@@H]2O[C@H]2[C@@H](C)[C@H](C)O)[C@@H](O)[C@H]1O ? 1.00

# log10(MIC) lookup, item C/C(=C\c1ncc(-c2ccc([S+](C)[O-])cc2)o1)C[C@@H]1OC[C@H](C[C@@H]2O[C@H]2[C@@H](C)[C@H](C)O)[C@@H](O)[C@H]1O (stereo partly drawn) -0.30

What log10(MIC) value was documented for this molecule, C/C(=C\c1ncc(-c2ccc([N+](=O)[O-])cc2)o1)C[C@@H]1OC[C@H](C[C@@H]2O[C@H]2[C@@H](C)[C@H](C)O)[C@@H](O)[C@H]1O ? -0.60

Looking for the measured log10(MIC) of C/C(=C\c1ncc(-c2ccc(C=O)cc2)o1)C[C@@H]1OC[C@H](C[C@@H]2O[C@H]2[C@@H](C)[C@H](C)O)[C@@H](O)[C@H]1O , can you help? -0.30

Which value of log10(MIC) has been reported for C/C(=C\c1ncc(-c2ccc(Br)s2)o1)C[C@@H]1OC[C@H](C[C@@H]2O[C@H]2[C@@H](C)[C@H](C)O)[C@@H](O)[C@H]1O in the records? -0.30

Return reported log10(MIC); argument: C/C(=C\c1ncc(-c2ccc(C#N)cc2)o1)C[C@@H]1OC[C@H](C[C@@H]2O[C@H]2[C@@H](C)[C@H](C)O)[C@@H](O)[C@H]1O -0.30

Consider the molecule C/C(=C\c1ncc(-c2cccc(C#N)c2)o1)C[C@@H]1OC[C@H](C[C@@H]2O[C@H]2[C@@H](C)[C@H](C)O)[C@@H](O)[C@H]1O and give its measured log10(MIC). -1.00

What does the record list as log10(MIC) for C/C(=C\c1ncc(-c2ccc(CO)cc2)o1)C[C@@H]1OC[C@H](C[C@@H]2O[C@H]2[C@@H](C)[C@H](C)O)[C@@H](O)[C@H]1O ? -0.60

So what does the record say about log10(MIC) for C/C(=C\c1ncc(Cc2ccccc2)o1)C[C@@H]1OC[C@H](C[C@@H]2O[C@H]2[C@@H](C)[C@H](C)O)[C@@H](O)[C@H]1O ? 1.00

What value of log10(MIC) has been reported for the following molecule? C/C(=C\c1ncc(-c2ccccc2[N+](=O)[O-])o1)C[C@@H]1OC[C@H](C[C@@H]2O[C@H]2[C@@H](C)[C@H](C)O)[C@@H](O)[C@H]1O 0.70

Please give the measured log10(MIC) for this molecule: C/C(=C\c1ncc(-c2ccccc2)o1)C[C@@H]1OC[C@H](C[C@@H]2O[C@H]2[C@@H](C)[C@H](C)O)[C@@H](O)[C@H]1O 0.00

---

tested on: Past. multocida PA1; experiment: MIC against veterinary bacteria in vitro; conditions: Pasteurella multocida, PA1, 18 h
MEASURED_ATTRIBUTE: MIC (µg/mL)
// return numeric value only (unit: µg/mL, not printed)

If you can, please state the reported MIC value of C/C(=C\c1ncc(CCCCCCCC(=O)O)o1)C[C@@H]1OC[C@H](C[C@@H]2O[C@H]2[C@@H](C)[C@H](C)O)[C@@H](O)[C@H]1O [Example 12] . 2.5

Param item = C/C(=C\c1ncc(-c2ccc([S+](C)[O-])cc2)o1)C[C@@H]1OC[C@H](C[C@@H]2O[C@H]2[C@@H](C)[C@H](C)O)[C@@H](O)[C@H]1O (stereo partly drawn) [Example 11] ; retrieve measured MIC. 5

Entry C/C(=C\c1nc(C)c(-c2ccccc2)o1)C[C@@H]1OC[C@H](C[C@@H]2O[C@H]2[C@@H](C)[C@H](C)O)[C@@H](O)[C@H]1O [Example 40] : reported MIC = ? 80

---

Give MIC for every item shown.
system: Past. multocida PA1; test: MIC against veterinary bacteria in vitro; details: Pasteurella multocida, PA1, 18 h
Numeric answer only, unit µg/mL assumed.

Provide the documented MIC with Past. multocida PA1 as the system for CSc1cccc(-c2cnc(/C=C(\C)C[C@@H]3OC[C@H](C[C@@H]4O[C@H]4[C@@H](C)[C@H](C)O)[C@@H](O)[C@H]3O)o2)c1 20

Give the reported MIC for C/C(=C\c1ncc(-c2cccc([N+](=O)[O-])c2)o1)C[C@@H]1OC[C@H](C[C@@H]2O[C@H]2[C@@H](C)[C@H](C)O)[C@@H](O)[C@H]1O (system: Past. multocida PA1). 10

Record C/C(=C\c1ncc(-c2ccccc2[N+](=O)[O-])o1)C[C@@H]1OC[C@H](C[C@@H]2O[C@H]2[C@@H](C)[C@H](C)O)[C@@H](O)[C@H]1O : what is its MIC with Past. multocida PA1? 10

Hi! What's the reported MIC for C/C(=C\c1ncc(-c2ccc(C(=O)O)cc2)o1)C[C@@H]1OC[C@H](C[C@@H]2O[C@H]2[C@@H](C)[C@H](C)O)[C@@H](O)[C@H]1O on Past. multocida PA1? 10
